Data provenance: patent US20130158075A1

Target: hDGAT1 (Homo sapiens, UniProt O75907)
Construct: made in house; host or cells: Sf9 insect cells (baculovirus); microsomal fraction
Sequence (O75907 whole entry): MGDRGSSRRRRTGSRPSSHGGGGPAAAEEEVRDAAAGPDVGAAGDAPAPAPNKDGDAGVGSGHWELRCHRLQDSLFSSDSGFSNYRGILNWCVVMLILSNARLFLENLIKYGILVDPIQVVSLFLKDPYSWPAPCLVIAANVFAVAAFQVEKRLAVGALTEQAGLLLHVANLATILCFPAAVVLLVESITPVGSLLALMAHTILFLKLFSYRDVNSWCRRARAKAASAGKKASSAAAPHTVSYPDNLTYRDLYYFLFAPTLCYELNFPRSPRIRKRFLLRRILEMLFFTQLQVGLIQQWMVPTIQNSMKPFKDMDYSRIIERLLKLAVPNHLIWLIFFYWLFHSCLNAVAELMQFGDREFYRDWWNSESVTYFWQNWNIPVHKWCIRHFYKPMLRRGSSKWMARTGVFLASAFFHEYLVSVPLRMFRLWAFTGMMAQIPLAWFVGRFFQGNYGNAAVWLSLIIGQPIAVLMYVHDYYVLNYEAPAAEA
Assay: In-vitro DGAT1 assay with hDGAT1 microsomes from Sf9 cells (14C oleoyl CoA, scintillation counting)
Assay type: biochemical
Details: read-out: Percentage inhibition of hDGAT1
Consider the following compounds; for each one, report its inhibition at 1 µM.

>>> measurement("Cc1nnc(CC2CCC(c3ncc(-c4ccc(NC(=O)Nc5c(F)cc(F)cc5F)cc4)s3)CC2)o1 (centres unmarked)")
"> 50%"
>>> measurement("Cc1ccc(F)c(NC(=O)Nc2ccc(-c3cnc(C4CCC(C(=O)O)CC4)s3)cc2)c1 (centres unmarked)")
"> 50%"
>>> measurement("O=C(O)CN1CCC(c2ncc(-c3ccc(NC(=O)Nc4ccc(F)c(F)c4F)cc3)s2)CC1")
"20 to 50%"
>>> measurement("CC(C(=O)O)N1CCC(c2ncc(-c3ccc(NC(=O)Nc4c(F)cc(F)cc4F)cc3)s2)CC1 (centres unmarked)")
"> 50%"
>>> measurement("CC(C)(C)c1ccc(C(=O)Nc2ccc(-c3cnc(CCCC(=O)O)s3)cc2)cc1")
"20 to 50%"

Value sought for every listed compound: inhibition at 1 µM.
1. O=C(Nc1ccc(-c2cnc(C3CCC(C(=O)O)CC3)s2)cc1)Nc1cccc(F)c1 (centres unmarked)
2. O=C(Nc1ccc(-c2cnc(C3CCC(C(=O)O)CC3)s2)cc1)Nc1ccc2c(c1)OCO2 (centres unmarked)
3. O=C(O)CC1CCC(c2ncc(-c3ccc(NC(=O)Nc4cc(F)c(F)cc4F)cc3)s2)CC1 (centres unmarked)

Solution:
1: > 50%; 2: > 50%; 3: > 50%
